target: L. donovani CYP5122A1 (Leishmania donovani); experiment: UV-Vis difference binding spectra of ligands with purified recombinant CYP5122A1
Sequence (A0A3S7X0B6 61-592): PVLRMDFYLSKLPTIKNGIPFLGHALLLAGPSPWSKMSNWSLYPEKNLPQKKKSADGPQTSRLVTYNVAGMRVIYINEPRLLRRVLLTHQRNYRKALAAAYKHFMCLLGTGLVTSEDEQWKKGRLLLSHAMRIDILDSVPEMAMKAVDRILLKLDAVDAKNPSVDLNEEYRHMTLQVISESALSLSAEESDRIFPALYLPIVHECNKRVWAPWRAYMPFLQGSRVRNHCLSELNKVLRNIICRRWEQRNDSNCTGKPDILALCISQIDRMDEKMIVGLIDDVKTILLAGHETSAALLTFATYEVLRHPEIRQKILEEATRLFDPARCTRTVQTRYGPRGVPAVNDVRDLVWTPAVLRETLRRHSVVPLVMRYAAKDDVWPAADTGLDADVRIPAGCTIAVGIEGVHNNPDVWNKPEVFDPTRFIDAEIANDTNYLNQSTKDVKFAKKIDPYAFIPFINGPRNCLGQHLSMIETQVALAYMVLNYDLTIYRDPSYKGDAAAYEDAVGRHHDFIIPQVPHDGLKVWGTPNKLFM
ENDPOINT_NAME: Binding mode with CYP5122A1 (difference binding spectrum)

CC(C)=CCC[C@@H](C)[C@H]1CC[C@H]2C3=C(CC[C@]12C)[C@@]1(C)CC[C@H](O)C(C)(C)C1CC3 (stereo partly drawn)	type I binding
CC(C)=CCC[C@@H](C)[C@H]1CC[C@@]2(C)C3=C(CC[C@]12C)[C@@]1(C)CC[C@H](O)C(C)(C)[C@@H]1CC3	type I binding
OC(Cn1cncn1)(Cn1cncn1)c1ccc(F)cc1F	no specific responses
C[C@@H](c1ncncc1F)[C@](O)(Cn1cncn1)c1ccc(F)cc1F	no specific responses
